B1: SOAT2 (parent)
chain: SLGKQKVFIIRKSLLDELMEVQHF

Variants of: B1
ASSAY NAME: protein stability index of a GFP-peptide fusion (GPS, HEK-293T) (PSI 1-6); higher = more stable;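 also: lentivirally expressed fusions sorted by FACS into six bins by GFP to DsRed ratio, PSI derived from sequencing read proportions per bin multiplied by bin number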
MEASUREMENT PARAMETERS: c terminus: a fixed tail appended
# protein stability index per entry
VALUE TYPE: protein stability index

SEQUENCE INPUT | ENDPOINT VALUE
SLGKQKVFIIRKSLLDELIEVQHF [M19I] | 2.25
SLGKQKVFIIAKSLLDELMEVQHF [R11A] | 2.83
SLGKQKVFIIRKSLLDELMEVNHF [Q22N] | 2.22
SLGKQKVFIIRKSLLDELGEVQHF [M19G] | 2.23
SLGKQKVFIIRKSLLDELMEVQNF [H23N] | 2.52
SLGKQKVFIIRKSLQDELMEVQHF [L15Q] | 1.8
SLGKQKVFIIRKSLLDELMEVYHF [Q22Y] | 2.55
SLGKQKVFIIRKSLLDELMCVQHF [E20C] | 2.19
SLGKQKVFIIRKSELDELMEVQHF [L14E] | 2
SLGKPKVFIIRKSLLDELMEVQHF [Q5P] | 2.87
SLGKQKVFIIRKSLLDELMEVQHE [F24E] | 1.71
SLGKQKHFIIRKSLLDELMEVQHF [V7H] | 1.59
SLGKQQVFIIRKSLLDELMEVQHF [K6Q] | 2.98
SLGKQKVFIIRKSLLDELHEVQHF [M19H] | 2.93
SLGKQKVFIIRKSLIDELMEVQHF [L15I] | 2.35
SLCKQKVFIIRKSLLDELMEVQHF [G3C] | 3.08
SLGKQKVFIIRKSDLDELMEVQHF [L14D] | 2.19
HLGKQKVFIIRKSLLDELMEVQHF [S1H] | 2
SLGKQKVFIIRKSLLDELMEVQEF [H23E] | 1.9
SLPKQKVFIIRKSLLDELMEVQHF [G3P] | 1.76
SKGKQKVFIIRKSLLDELMEVQHF [L2K] | 1.44
SLGKQKVFMIRKSLLDELMEVQHF [I9M] | 2.21
SLEKQKVFIIRKSLLDELMEVQHF [G3E] | 1.94
SLGKQKVFIIRKSLLDEIMEVQHF [L18I] | 2.71
SLYKQKVFIIRKSLLDELMEVQHF [G3Y] | 2.76
SLGKQKVRIIRKSLLDELMEVQHF [F8R] | 2.36
SLGKQKVFIIRKSLLDELMEVQHL [F24L] | 2.18
SLGKQKVFIIRKSLLDELMEKQHF [V21K] | 2.08
SLFKQKVFIIRKSLLDELMEVQHF [G3F] | 2.29
SLGKQKVFIIRKSLLDETMEVQHF [L18T] | 1.31
SLGKQKVFIIRKTLLDELMEVQHF [S13T] | 2.4
SLGKQKVFIIRKSLLDECMEVQHF [L18C] | 1.95
SLGKQKVFIIRKSLLDDLMEVQHF [E17D] | 2.51
SLGKAKVFIIRKSLLDELMEVQHF [Q5A] | 2.54
RLGKQKVFIIRKSLLDELMEVQHF [S1R] | 1.94
SLGKQKVFIIRKSLWDELMEVQHF [L15W] | 2.68
SLGKQKVFIIRKSLLDELMEVQHY [F24Y] | 2.74
SLGKQKVFIIRKSLLDELMENQHF [V21N] | 2
NLGKQKVFIIRKSLLDELMEVQHF [S1N] | 2.68
SMGKQKVFIIRKSLLDELMEVQHF [L2M] | 2.25
SLGKQKVFCIRKSLLDELMEVQHF [I9C] | 1.76
SLGKQKVFIIRKSLLDELMNVQHF [E20N] | 3.04
SLGKQKVFIIRKSLLEELMEVQHF [D16E] | 2.39
SLGKQKVFIIRKSLLDKLMEVQHF [E17K] | 2.17
SLGKQKVFIIRKSLLDELMGVQHF [E20G] | 2.85
SLGKQKVFIVRKSLLDELMEVQHF [I10V] | 2.52
SLGKQKVFIIRQSLLDELMEVQHF [K12Q] | 2.96
SLGKQKVFIIRKSLLDELMEGQHF [V21G] | 1.77
SLGKQKVFIIRKSLLYELMEVQHF [D16Y] | 3.13
SLGKQKVFIIRKSLLDELMEVQIF [H23I] | 2.72
SLGKQKVFIIRKSLLDELPEVQHF [M19P] | 2.08
SLGKQKVFIIRKSLLDYLMEVQHF [E17Y] | 1.85
SLGKQKVFIIRKSLLDEVMEVQHF [L18V] | 2.5
SLIKQKVFIIRKSLLDELMEVQHF [G3I] | 3.27
SLGKQKVFIIRKSLLDELMESQHF [V21S] | 2.63
SLGKQKVFIIRKSLLDESMEVQHF [L18S] | 1.25
LLGKQKVFIIRKSLLDELMEVQHF [S1L] | 3.27
SAGKQKVFIIRKSLLDELMEVQHF [L2A] | 2.94
SLGKQKVFIIRKSLHDELMEVQHF [L15H] | 1.78
SLGKQKVFIIRKSLLDELMEVQHM [F24M] | 2.2
SLGKQKVFIIRKSLLFELMEVQHF [D16F] | 2.19
KLGKQKVFIIRKSLLDELMEVQHF [S1K] | 2.94
SLGKQKVFPIRKSLLDELMEVQHF [I9P] | 2.1
SLGKQKVFQIRKSLLDELMEVQHF [I9Q] | 1.89
SLGKQKVFIIRKSLLDELMEVKHF [Q22K] | 2.35
SLGKQKVFIIRWSLLDELMEVQHF [K12W] | 3.49
SLGKSKVFIIRKSLLDELMEVQHF [Q5S] | 2.73
SLGKQKVFIIRKSLLDELEEVQHF [M19E] | 1.69
SLGKQKVFLIRKSLLDELMEVQHF [I9L] | 1.21
SLGKQKVFIIRKSLLGELMEVQHF [D16G] | 2.76
SLGKQKVFIIRKSFLDELMEVQHF [L14F] | 2.52
SLGKQKVFIIRKSLLDELMEAQHF [V21A] | 3.1
SLGKQKVFIIRHSLLDELMEVQHF [K12H] | 3.61
SLGKQKVFIIRKSLNDELMEVQHF [L15N] | 1.88
SLGKQEVFIIRKSLLDELMEVQHF [K6E] | 2.05
STGKQKVFIIRKSLLDELMEVQHF [L2T] | 3.3
SLGKQKVFIIRKSLLDELMEVQHS [F24S] | 2.25
SLGKQKVFIIRMSLLDELMEVQHF [K12M] | 2.13
SLGKQKVFIIDKSLLDELMEVQHF [R11D] | 2.22
SLGKQKVFIIRKSLSDELMEVQHF [L15S] | 2.23
SLGKQKNFIIRKSLLDELMEVQHF [V7N] | 1.92
SLGKQKVEIIRKSLLDELMEVQHF [F8E] | 2.58
SLGKQKVFIIRNSLLDELMEVQHF [K12N] | 2.32
SLGKQKVFIIRKSLLDELSEVQHF [M19S] | 2.25
SLGKQKVFIIRKVLLDELMEVQHF [S13V] | 1.88
SLGKQKVFIIRASLLDELMEVQHF [K12A] | 2.44
SLGKNKVFIIRKSLLDELMEVQHF [Q5N] | 2.51
SLGKQKVFIIRKSLLDELMEVQHG [F24G] | 1.68
SLGKQKVFIIIKSLLDELMEVQHF [R11I] | 2.78
SLVKQKVFIIRKSLLDELMEVQHF [G3V] | 2.97
SLGKQKVFISRKSLLDELMEVQHF [I10S] | 1.8
